The origin of these recorded values is ChEMBL document CHEMBL3885881.

Organism: Rattus norvegicus
run.description: DrugMatrix - Regimen: Daily Repeat
Format: toxicity, organism-based, Sprague-Dawley
Design: regimen Daily Repeat, gender Male, age 6-8 weeks
assay.conditions: in vivo, po, 0 mg/kg, 72 h, tissue Plasma, route oral GAVAGE, dose level Control, time 3 day, vehicle 100 % WATER
ALBUMIN listing for selected compounds.
Report as: number unit

N[C@@H](Cc1ccc(O)c(O)c1)C(=O)O ... 4.1 G/DL

Data request: GET /values?readout=ALBUMIN&item= `Cc1onc(-c2ccccc2Cl)c1C(=O)N[C@@H]1C(=O)N2[C@@H]1SC(C)(C)[C@@H]2C(=O)O`
Data returned: 4.18 G/DL

Data request: GET /values?readout=ALBUMIN&item= `Clc1cccc(Cl)c1N=C1NCCN1`
Data returned: 4.27 G/DL

Data request: GET /values?readout=ALBUMIN&item= `Cn1cc[nH]c1=S`
Data returned: 4.08 G/DL

###

Species: Rattus norvegicus
run.description: DrugMatrix - Regimen: Daily Repeat
Type: toxicity, organism-based, Sprague-Dawley
Parameters: regimen Daily Repeat, gender Male, age 6-8 weeks
assay.conditions: in vivo, po, 120 mg/kg, […], tissue Blood, route oral GAVAGE, dose level High, time 14 day, vehicle 100 % WATER
measurement.kind: ABSOLUTE BASOPHIL (cells/µL)
Output spec: scalar in cells/µL, unitless text.

Data request: GET /values?readout=ABSOLUTE BASOPHIL&item= COCCc1ccc(OCC(O)CNC(C)C)cc1 (stereo unspecified)
Data returned: 90

###

Species on record: Rattus norvegicus
run.description: DrugMatrix - Regimen: Daily Repeat
Assay type: toxicity, organism-based, Sprague-Dawley
Set-up: regimen Daily Repeat, gender Male, age 6-8 weeks
assay.conditions: in vivo, ip, 0 mg/kg, 120 h, tissue Blood, route intraperitoneal, dose level Control, time 5 day, vehicle 100 % SALINE
measurement.kind: ABSOLUTE BASOPHIL
Report as: number unit

Data request: GET /values?readout=ABSOLUTE BASOPHIL&item= LEAD (II) ACETATE
Data returned: 32 cells/µL

###

Organism: Rattus norvegicus
run.description: DrugMatrix - Regimen: Daily Repeat
Type: toxicity, organism-based, Sprague-Dawley
Design: regimen Daily Repeat, gender Male, age 6-8 weeks
assay.conditions: in vivo, iv, 0 mg/kg, 120 h, tissue Blood, dose level Control, time 5 day, vehicle 100 % SALINE
Starred links: 1 amine or outer side, 2 acyl side, 3 side chain; linkers in the order of their positions; H or OH if unused. Positions of bridges follow the written chain, without caps; N, C: chain ends. Non-standard residues stand in square brackets, D forms with d. Residues, ends and D or L forms follow the SMILES beside them. Chains are numbered I, II in the order given. Actinocin(9to1) = Cc1c2oc3c(C)ccc(C(=O)[*:1])c3nc-2c(C(=O)[*:2])c(N)c1=O; NMeV = CN[C@H](C(=O)O)C(C)C; Sar = CNCC(=O)O
measurement.kind: PLATELET COUNT
Report as: number unit

COc1cc2c3cc1Oc1cc(ccc1O)C[C@@H]1c4c(cc(OC)c(O)c4Oc4ccc(cc4)C[C@@H]3N(C)CC2)CC[N+]1(C)C.[Cl-] ... 1261.83 x10E3/uL
CC[C@]1(O)C[C@H]2CN(CCc3c([nH]c4ccccc34)[C@@](C(=O)OC)(c3cc4c(cc3OC)N(C=O)[C@H]3[C@@](O)(C(=O)OC)[C@H](OC(C)=O)[C@]5(CC)C=CCN6CC[C@]43[C@@H]65)C2)C1 ... 924.33 x10E3/uL
Cc1ccc(N(CC2=NCCN2)c2cccc(O)c2)cc1 ... 1475.33 x10E3/uL

Here's the next entry for you.
Data request: GET /values?readout=PLATELET COUNT&item= Cc1c2oc3c(C)ccc(C(=O)N[C@@H]4C(=O)N[C@H](C(C)C)C(=O)N5CCC[C@H]5C(=O)N(C)CC(=O)N(C)[C@@H](C(C)C)C(=O)O[C@@H]4C)c3nc-2c(C(=O)N[C@@H]2C(=O)N[C@H](C(C)C)C(=O)N3CCC[C@H]3C(=O)N(C)CC(=O)N(C)[C@@H](C(C)C)C(=O)O[C@@H]2C)c(N)c1=O [DACTINOMYCIN] (I: T[dV]P[Sar][NMeV] / II: T[dV]P[Sar][NMeV]; ester I:1-I:C, II:1-II:C; linker I:N-II:N via Actinocin(9to1))
Data returned: 1178.17 x10E3/uL
